# measurement target: CYP1A2 (Homo sapiens (Human))
# Sequence (P05177 whole entry): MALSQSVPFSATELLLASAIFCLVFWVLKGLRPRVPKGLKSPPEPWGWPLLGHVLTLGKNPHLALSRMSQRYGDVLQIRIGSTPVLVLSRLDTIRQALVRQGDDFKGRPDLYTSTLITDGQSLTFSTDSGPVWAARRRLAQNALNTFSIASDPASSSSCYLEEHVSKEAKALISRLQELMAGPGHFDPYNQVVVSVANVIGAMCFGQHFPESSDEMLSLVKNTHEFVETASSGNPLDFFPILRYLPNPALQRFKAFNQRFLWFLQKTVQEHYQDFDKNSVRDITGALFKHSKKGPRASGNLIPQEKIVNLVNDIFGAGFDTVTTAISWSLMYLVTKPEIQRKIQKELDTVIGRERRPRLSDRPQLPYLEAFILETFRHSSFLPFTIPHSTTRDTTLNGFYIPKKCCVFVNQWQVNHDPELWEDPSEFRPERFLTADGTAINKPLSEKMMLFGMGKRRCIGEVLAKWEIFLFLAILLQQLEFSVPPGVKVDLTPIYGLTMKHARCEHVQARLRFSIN
# assay notes: Cytochrome P450 activity inhibition, CYP1A2
# Type: in vitro ADME
# condition parameters: 10 μM, human liver microsomes, Phenacetin substrate
endpoint: CYP inhibition (% of control) 1A2

[
  {
    "compound": "OCCC/C(=C(\\c1ccc(O)cc1)c1ccc(OCCN2CCC[C@@H]2CO)cc1)c1ccccc1 [Compound 38c]",
    "CYP inhibition (% of control) 1A2": "79.2 % of control"
  },
  {
    "compound": "CC(C)N1CCC(c2ccc(/C(=C(/CCCO)c3ccccc3)c3cccc(O)c3)cc2)CC1 [Compound 22m]",
    "CYP inhibition (% of control) 1A2": "97 % of control"
  },
  {
    "compound": "Nc1ccc(/C(=C(\\CCCO)c2ccccc2)c2ccc(C3CCN(C4CC4)CC3)cc2)cc1 [Compound 26d]",
    "CYP inhibition (% of control) 1A2": ">100 % of control"
  },
  {
    "compound": "CN1CCCC1CCOc1ccc(/C(=C(/CCCO)c2ccccc2)c2ccc(Br)cc2)cc1 (stereo not drawn) [Compound 13d]",
    "CYP inhibition (% of control) 1A2": ">100 % of control"
  },
  {
    "compound": "OCCC/C(=C(\\c1ccc(O)cc1)c1ccc(C2CN(C3CC3)C2)cc1)c1ccccc1 [Compound 22d]",
    "CYP inhibition (% of control) 1A2": ">100 % of control"
  }
]

Quick one: CYP inhibition (% of control) 1A2 of CN1CCN(c2ccc(/C(=C(/CCCO)c3ccccc3)c3ccc([N+](=O)[O-])cc3)cc2)CC1 [Compound 18c] ? 92.2 % of control

Returns the measured CYP inhibition (% of control) 1A2 for the input compound. Input: OCCC/C(=C(/c1ccc(C2=CCN(C3CC3)CC2)cc1)c1cccc(O)c1)c1ccccc1 [Compound 22l] 96.2 % of control

Entry CN1CCC(c2ccc(/C(=C(/CCCO)c3ccccc3)c3cccc(O)c3)cc2)CC1 [Compound 22ac] : reported CYP inhibition (% of control) 1A2 = ? >100 % of control

Any idea what CYP inhibition (% of control) 1A2 was measured for Cc1ccc(/C(=C(\CCCO)c2ccccc2)c2ccc(C3CN(C(C)C)C3)cc2)cc1 [Compound 22e] ? 94.9 % of control

Item OCCC/C(=C(/c1ccc(C2CCN(C3CC3)CC2)cc1)c1cccc(O)c1)c1ccccc1 [Compound 22r] has what recorded CYP inhibition (% of control) 1A2? >100 % of control

I have this compound here, CC(C)N1CCC(c2ccc(/C(=C(/CCCO)c3ccccc3)c3ccc(O)cc3)cc2)CC1 [Compound 22k] , and I need its recorded CYP inhibition (% of control) 1A2. >100 % of control

Quick one: CYP inhibition (% of control) 1A2 of CC(C)N1CCN(c2ccc(/C(=C(/CCCO)c3ccccc3)c3ccc(Br)cc3)cc2)CC1 [Compound 18h] ? 93.5 % of control

====

# condition parameters: 1 μM, 30 minutes, 37° C., NADPH
endpoint: MS(Microsomal Stability) (%) dog
Lab note: write values as number then unit, every time.

Reference set, count: 8
[
  {
    "compound": "Cc1ccc(/C(=C(\\CCCO)c2ccccc2)c2ccc(N3CCNCC3)cc2)cc1 [Compound 20b]",
    "MS(Microsomal Stability) (%) dog": "58%"
  },
  {
    "compound": "Cc1ccc(/C(=C(\\CCCO)c2ccccc2)c2ccc(C3CCNCC3)cc2)cc1 [Compound 20k]",
    "MS(Microsomal Stability) (%) dog": "84.9%"
  },
  {
    "compound": "CCN1CCC(c2ccc(C(=C(CCCO)c3ccccc3)c3cccc(O)c3)cc2)CC1 [Compound 22ae]",
    "MS(Microsomal Stability) (%) dog": "33.7%"
  },
  {
    "compound": "CC(C)N1CCC(c2ccc(/C(=C(/CCCO)c3ccccc3)c3cccc(O)c3)cc2)CC1 [Compound 22h]",
    "MS(Microsomal Stability) (%) dog": "22.4%"
  },
  {
    "compound": "Cc1ccc(/C(=C(\\CCCO)c2ccccc2)c2ccc(C3CCN(C)CC3)cc2)cc1 [Compound 22f]",
    "MS(Microsomal Stability) (%) dog": "78.1%"
  },
  {
    "compound": "CC(C)N1CCN(c2ccc(/C(=C(/CCCO)c3ccccc3)c3cccc(O)c3)cc2)CC1 [Compound 18k]",
    "MS(Microsomal Stability) (%) dog": "61.2%"
  },
  {
    "compound": "CC(C)N1CCN(c2ccc(/C(=C(/CCCO)c3ccccc3)c3ccc([N+](=O)[O-])cc3)cc2)CC1 [Compound 18g]",
    "MS(Microsomal Stability) (%) dog": "84.9%"
  },
  {
    "compound": "OCCC/C(=C(\\c1ccc(O)cc1)c1ccc(N2CCN(C3CCCCC3)CC2)cc1)c1ccccc1 [Compound 22p]",
    "MS(Microsomal Stability) (%) dog": "77.7%"
  }
]

For the compound shown here, OCCC/C(=C(\c1ccc(O)cc1)c1ccc(N2CCNCC2)cc1)c1ccccc1 [Compound 20j] , give the reported MS(Microsomal Stability) (%) dog. 68.3%

Given Cl.Cl.OCCC/C(=C(\c1ccc(O)cc1)c1ccc(OCCN2CCNCC2)cc1)c1ccccc1 [Compound 7a] , state its recorded MS(Microsomal Stability) (%) dog. 64.7%

So what's the measured MS(Microsomal Stability) (%) dog for this one? CC(C)N1CCN(c2ccc(/C(=C(/CCCO)c3ccccc3)c3ccc(Br)cc3)cc2)CC1 [Compound 18h] 64.4%
